Just for reference, patent US10464978B2 is where these values come from.

ASSAY_SYSTEM: HLA-A*02:01 (Homo sapiens, UniProt P04439, D140Y/D185E/D98H/E176V/E277Q/G131W/G231S/I119V/I121R/I166T/I218V/L300P/L318F/N151K/N90K/P208A/P217A/Q86G/Q94H/R138H/R169H/T345S)
EXPERIMENT_SUMMARY: MHC binding assay: UV-ligand exchange with beta2m ELISA (peptide exchange yield)
CONDITIONS: binding to HLA-A*02:01
ASSAY_ENDPOINT: Peptide exchange (MHC class I binding score, peptide exchange yield)

SUBSTANCE	READING
401 (ILLDDTGLAYI; listed as Homo sapiens) [compound 401]	“+++” (≥50 = +++)
161 (ALLEGVNTV; listed as Homo sapiens) [compound 161]	“+++” (≥50 = +++)
555 (YVLEGLKSV; listed as Homo sapiens) [compound 555]	“+++” (≥50 = +++)
439 (YLLQEIYGI; listed as Homo sapiens) [compound 439]	“+++” (≥50 = +++)
244 (SLFGGTEITI; listed as Homo sapiens) [compound 244]	“+++” (≥50 = +++)
114 (SLVGEPILQNV; listed as Homo sapiens) [compound 114]	“++” (≥20% = ++)
605 (KLYEAVPQL; listed as Homo sapiens) [compound 605]	“+++” (≥50 = +++)
430 (HLYSSIEHLTT; listed as Homo sapiens) [compound 430]	“+++” (≥50 = +++)
184 (YLMDINGKMWL; listed as Homo sapiens) [compound 184]	“+++” (≥50 = +++)
455 (SLLKEPQKVQL; listed as Homo sapiens) [compound 455]	“++” (≥20% = ++)
157 (SLNDEVPEV; listed as Homo sapiens) [compound 157]	“++” (≥20% = ++)
566 (VIADGGIQNV; listed as Homo sapiens) [compound 566]	“++” (≥20% = ++)
267 (ALQDFLLSV; listed as Homo sapiens) [compound 267]	“+++” (≥50 = +++)
